tested on: Mus musculus; assay: Phototoxicity in Swiss albino mouse assessed as erythema incidence at 140 mg/kg, po after 48 hrs of irradiation; type: organism-based; parameters: dose 140 mg/kg, route oral; conditions: in vivo
property-name: Activity

Solved cases (4 shown):
compound="COc1c(N2CCN(C(=O)C3COc4ccccc4O3)CC2)c(F)cc2c(=O)c(C(=O)O)cn(C3CC3)c12 (stereo not given)" assay_target="Mus musculus" readout_value=Non-toxic
compound="COc1c(N2CC(C)OC(C)C2)c(F)c([N+](=O)[O-])c2c(=O)c(C(=O)O)cn(C3CC3)c12 (stereo not given)" assay_target="Mus musculus" readout_value=Non-toxic
compound="COc1ccc(CC2C3=C(CCCC3)CCN2c2c(F)c([N+](=O)[O-])c3c(=O)c(C(=O)O)cn(C4CC4)c3c2OC)cc1 (stereo not given)" assay_target="Mus musculus" readout_value=Non-toxic
compound="CCn1cc(C(=O)O)c(=O)c2cc(F)c(N3CCNC(C)C3)c(F)c21 (stereo not given)" assay_target="Mus musculus" readout_value=Toxic

Attention now turns to another entry.
## Input // Input: CCN(CC)C(=O)C1CCCN(c2c(F)cc3c(=O)c(C(=O)O)cn(C4CC4)c3c2OC)C1 (stereo not given) . Output its Activity only.
## Output Non-toxic

Data provenance is ChEMBL document CHEMBL1144027.
